- STUDY_SYSTEM: Isocitrate dehydrogenase [NADP] cytoplasmic (Homo sapiens)
- PROCEDURE_DETAILS: qHTS for Inhibitors of mutant isocitrate dehydrogenase 1 (IDH1): qHTS; also: nearly all actives have a fitted effect of over 65% in size
- TEST_CONDITIONS: IDH1-R132H enzyme, NADPH consumption, diaphorase/resazurin fluorescence; series mostly up to 76.6 µM
Among all 390,000 compounds or so, about 360 (0.092%) were called active. For the sample, actives were picked, then their nearest neighbours and some compounds at random.
EXPERIMENTAL_READOUT: outcome

[
  {
    "CHEMICAL_STRING": "Cc1ccc(S(=O)(=O)N(Cc2nc(-c3ccc(Cl)cc3)no2)C2CCCCC2)cc1",
    "EXPERIMENTAL_READOUT": "outcome",
    "RESULT": "inactive"
  },
  {
    "CHEMICAL_STRING": "CCCCn1c(CNC(=O)C23CC4CC(CC(C4)C2)C3)nnc1SCC(=O)Nc1ccc(C)cc1",
    "EXPERIMENTAL_READOUT": "outcome",
    "RESULT": "inactive"
  },
  {
    "CHEMICAL_STRING": "Cc1cc(C)c2oc(C(=O)Nc3ccc(S(=O)(=O)N(C)c4ccccc4)cc3)cc(=O)c2c1",
    "EXPERIMENTAL_READOUT": "outcome",
    "RESULT": "inactive"
  },
  {
    "CHEMICAL_STRING": "N#Cc1nc(/C=C/c2ccc(F)cc2)oc1NCc1ccc(F)cc1",
    "EXPERIMENTAL_READOUT": "outcome",
    "RESULT": "inactive"
  }
]

Dear reader, for each entry below, please note its outcome.
1. CC(C)NC(=O)c1nn(-c2ccccc2F)nc1CO
2. COCCNC(=O)c1ccc2c(c1)N(Cc1cccc(Cl)c1)C(=O)c1ccccc1S2(=O)=O
3. O=C(CN1C(=O)COc2ccc(S(=O)(=O)N3CCCCCC3)cc21)N1CCN(c2cccc(C(F)(F)F)c2)CC1
4. COc1ccc(Cl)cc1N(C)C(=O)c1cc2c(=O)oc3ccc(C)cc3c2s1
5. Cc1ccccc1Nc1nn2c(=O)c3ccc(C(=O)NCCc4ccc(Cl)cc4)cc3nc2s1

Ans:
1. inactive
2. inactive
3. inactive
4. inactive
5. inactive

----------
- STUDY_SYSTEM: Isocitrate dehydrogenase [NADP] cytoplasmic (Homo sapiens) (UniProt O75874)
- Sequence (O75874 whole entry R132H, change not shown): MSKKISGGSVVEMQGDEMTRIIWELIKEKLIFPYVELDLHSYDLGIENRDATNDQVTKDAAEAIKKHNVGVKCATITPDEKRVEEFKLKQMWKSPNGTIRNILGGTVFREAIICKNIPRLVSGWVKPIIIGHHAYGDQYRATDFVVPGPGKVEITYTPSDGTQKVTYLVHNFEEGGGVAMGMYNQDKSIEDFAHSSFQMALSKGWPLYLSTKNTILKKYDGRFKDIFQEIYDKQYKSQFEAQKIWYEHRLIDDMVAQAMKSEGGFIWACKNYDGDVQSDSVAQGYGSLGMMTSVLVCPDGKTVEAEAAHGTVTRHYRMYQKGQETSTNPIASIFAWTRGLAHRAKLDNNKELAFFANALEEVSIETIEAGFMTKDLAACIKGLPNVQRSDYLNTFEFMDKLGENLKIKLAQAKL
- PROCEDURE_DETAILS: qHTS for Inhibitors of mutant isocitrate dehydrogenase 1 (IDH1): qHTS; also: nearly all actives have a fitted effect of over 65% in size
- TEST_CONDITIONS: IDH1-R132H enzyme, NADPH consumption, diaphorase/resazurin fluorescence; series mostly up to 76.6 µM
About 360 (0.092%) of roughly 390,000 compounds were called active. Calls follow the shape of the dose curve; as a rule, active = well fitted inhibition curve with a large enough effect; inconclusive = small, poorly fitted or top-dose-only effect; inactive = no such curve, though single readings can be large or run the other way. This excerpt belongs to a sample that is enriched for actives.
Please state which outcome applies, choosing from Y (active), N (inactive)

Solved cases below.
[
  {
    "CHEMICAL_STRING": "O=C(CN1C(=O)CCn2nc(-c3ccccc3)cc21)NCc1ccccc1",
    "GROUP": "N"
  },
  {
    "CHEMICAL_STRING": "NS(=O)(=O)c1ccc2nc(NC(=O)COc3ccccc3)sc2c1",
    "GROUP": "N"
  },
  {
    "CHEMICAL_STRING": "COc1ccccc1OCCCn1c(-c2ccc(Cl)cc2)nc2ccccc2c1=O",
    "GROUP": "N"
  },
  {
    "CHEMICAL_STRING": "CC(C)c1ccc(Cn2c(COc3ccccc3)nc3ccccc32)cc1",
    "GROUP": "N"
  },
  {
    "CHEMICAL_STRING": "O=C(COc1ccc(Cl)cc1)Nc1ccccc1OCc1cc(=O)n2ccccc2n1",
    "GROUP": "N"
  },
  {
    "CHEMICAL_STRING": "Cc1cc(Cl)ccc1NC(=O)Cc1ccc(NC(=O)N2CCCCc3ccccc32)cc1",
    "GROUP": "N"
  },
  {
    "CHEMICAL_STRING": "O=C(/C=C/c1ccccc1)Nc1cc(-c2nc3cc(Cl)ccc3o2)ccc1Cl",
    "GROUP": "N"
  },
  {
    "CHEMICAL_STRING": "O=C(CCc1cn(Cc2ccc(F)cc2)c2ccccc12)NC1CCCCC1",
    "GROUP": "N"
  }
]

Q: What did this assay record as the result for COc1ccc(CCNC(=O)CCc2c(C)nc3c(c(C)nn3-c3ccc(C)c(C)c3)c2C)c(OC)c1OC ?
Ans: N

Q: What did this assay record as the result for Cn1c(COc2ccc(Cl)cc2)nc2ccccc2c1=O ?
Ans: Y
